Tested on: NCI-H1793
test-method-notes: relative viability (nuclei count vs DMSO), 5 days (fraction); higher = more cells survive
condition-description: first compound 0.003162 µM
For each record, write down the corresponding relative viability.

Cc1cn(-c2cc(NC(=O)c3ccc(C)c(Nc4nccc(-c5cccnc5)n4)c3)cc(C(F)(F)F)c2)cn1 [Nilotinib] + CC(=O)c1c(C)c2cnc(Nc3ccc(N4CCNCC4)cn3)nc2n(C2CCCC2)c1=O [Palbociclib] (partner 0.5 µM) ... 0.352
Cc1cn(-c2cc(NC(=O)c3ccc(C)c(Nc4nccc(-c5cccnc5)n4)c3)cc(C(F)(F)F)c2)cn1 [Nilotinib] + CC(=O)Nc1cccc(-n2c(=O)n(C3CC3)c(=O)c3c(Nc4ccc(I)cc4F)n(C)c(=O)c(C)c32)c1 [Trametinib] (partner 0.02 µM) ... 0.396
Cc1cn(-c2cc(NC(=O)c3ccc(C)c(Nc4nccc(-c5cccnc5)n4)c3)cc(C(F)(F)F)c2)cn1 [Nilotinib] + CS(=O)(=O)CCNCc1ccc(-c2ccc3ncnc(Nc4ccc(OCc5cccc(F)c5)c(Cl)c4)c3c2)o1 [Lapatinib] (partner 2 µM) ... 0.842

Now for another entry.
Data request, read-out relative viability, for Cc1cn(-c2cc(NC(=O)c3ccc(C)c(Nc4nccc(-c5cccnc5)n4)c3)cc(C(F)(F)F)c2)cn1 [Nilotinib] + Cc1cc(Nc2cc(N3CCN(C)CC3)nc(Sc3ccc(NC(=O)C4CC4)cc3)n2)n[nH]1 [Tozasertib] (partner 0.1 µM)
0.298

###

I'd be grateful if you could share measured relative viability for these entries.
Tested on: NCI-H1734
test-method-notes: relative viability (nuclei count vs DMSO), 5 days (fraction); higher = more cells survive
condition-description: first compound 0.03162 µM
Give bare numbers.

Cc1cn(-c2cc(NC(=O)c3ccc(C)c(Nc4nccc(-c5cccnc5)n4)c3)cc(C(F)(F)F)c2)cn1 [Nilotinib] + C[C@]1(O)C[C@@H](c2nc(-c3ccc4ccc(-c5ccccc5)nc4c3)c3c(N)nccn32)C1 [Linsitinib] (partner 1 µM) ... 0.669

Value sought for every listed molecule: relative viability.
1. Cc1cn(-c2cc(NC(=O)c3ccc(C)c(Nc4nccc(-c5cccnc5)n4)c3)cc(C(F)(F)F)c2)cn1 [Nilotinib] + CC(C)C[C@H](NC(=O)[C@H](Cc1ccccc1)NC(=O)c1cnccn1)B(O)O [Bortezomib] (partner 0.002 µM)
2. Cc1cn(-c2cc(NC(=O)c3ccc(C)c(Nc4nccc(-c5cccnc5)n4)c3)cc(C(F)(F)F)c2)cn1 [Nilotinib] + CC1(C)CCC(c2ccc(Cl)cc2)=C(CN2CCN(c3ccc(C(=O)NS(=O)(=O)c4ccc(N[C@H](CCN5CCOCC5)CSc5ccccc5)c(S(=O)(=O)C(F)(F)F)c4)cc3)CC2)C1 [Navitoclax] (partner 0.5 µM)

1. 0.558
2. 0.434

###

Tested on: BEN
test-method-notes: relative viability (nuclei count vs DMSO), 5 days (fraction); higher = more cells survive
condition-description: first compound 0.6325 µM
Checkbox rule: relative viability lower than 0.8 = yes (1); relative viability not lower than 0.8 = no (0).

# count of solved cases: 4
CN1CCN(CCOc2cc(OC3CCOCC3)c3c(Nc4c(Cl)ccc5c4OCO5)ncnc3c2)CC1 [Saracatinib] + CC(C)C[C@H](NC(=O)[C@H](Cc1ccccc1)NC(=O)c1cnccn1)B(O)O [Bortezomib] (partner 0.002 µM) ... no (0)
Cc1csc(=NC2CCCCC2)n1/N=C/c1ccc(O)c(O)c1O [MIM1] + CS(=O)(=O)CCNCc1ccc(-c2ccc3ncnc(Nc4ccc(OCc5cccc(F)c5)c(Cl)c4)c3c2)o1 [Lapatinib] (partner 2 µM) ... yes (1)
Cc1csc(=NC2CCCCC2)n1/N=C/c1ccc(O)c(O)c1O [MIM1] + CCNC(=O)c1noc(-c2cc(C(C)C)c(O)cc2O)c1-c1ccc(CN2CCOCC2)cc1 [Luminespib] (partner 0.01 µM) ... no (0)
CN1CCN(CCOc2cc(OC3CCOCC3)c3c(Nc4c(Cl)ccc5c4OCO5)ncnc3c2)CC1 [Saracatinib] + NC(=O)Nc1cc(-c2cccc(F)c2)sc1C(=O)N[C@H]1CCCNC1 [AZD7762] (partner 0.2 µM) ... no (0)

Consider Cc1csc(=NC2CCCCC2)n1/N=C/c1ccc(O)c(O)c1O [MIM1] + Nc1nc2[nH]cc(CCc3ccc(C(=O)N[C@@H](CCC(=O)O)C(=O)O)cc3)c2c(=O)[nH]1 [Pemetrexed] (partner 0.2 µM) . Does its relative viability lie strictly below 0.8?
yes (1)

Same question for Cc1csc(=NC2CCCCC2)n1/N=C/c1ccc(O)c(O)c1O [MIM1] + O=C(CCCCCCC(=O)Nc1ccccc1)NO [Vorinostat] (partner 1 µM) please.
yes (1)

###

Test system: NCI-H1993
test-method-notes: relative viability (nuclei count vs DMSO), 5 days (fraction); higher = more cells survive
condition-description: first compound 0.6325 µM
result-type: relative viability

Answered examples (2):
CN1CCN(CCOc2cc(OC3CCOCC3)c3c(Nc4c(Cl)ccc5c4OCO5)ncnc3c2)CC1 [Saracatinib] + N=C(N)NC(=N)NCCc1ccccc1 [Phenformin] (partner 250 µM) ... 0.512
Cc1csc(=NC2CCCCC2)n1/N=C/c1ccc(O)c(O)c1O [MIM1] + CS(=O)(=O)N1CCN(Cc2cc3nc(-c4cccc5[nH]ncc45)nc(N4CCOCC4)c3s2)CC1 [Pictilisib] (partner 1 µM) ... 0.92

Below are some compounds; for each one, tell me its relative viability.
1. CN1CCN(CCOc2cc(OC3CCOCC3)c3c(Nc4c(Cl)ccc5c4OCO5)ncnc3c2)CC1 [Saracatinib] + Nc1nc2[nH]cc(CCc3ccc(C(=O)N[C@@H](CCC(=O)O)C(=O)O)cc3)c2c(=O)[nH]1 [Pemetrexed] (partner 0.2 µM)
2. Cc1csc(=NC2CCCCC2)n1/N=C/c1ccc(O)c(O)c1O [MIM1] + CC(C)C[C@H](NC(=O)[C@H](Cc1ccccc1)NC(=O)c1cnccn1)B(O)O [Bortezomib] (partner 0.002 µM)
3. Cc1csc(=NC2CCCCC2)n1/N=C/c1ccc(O)c(O)c1O [MIM1] + N=C(N)NC(=N)NCCc1ccccc1 [Phenformin] (partner 250 µM)
4. CN1CCN(CCOc2cc(OC3CCOCC3)c3c(Nc4c(Cl)ccc5c4OCO5)ncnc3c2)CC1 [Saracatinib] + CC(=O)c1c(C)c2cnc(Nc3ccc(N4CCNCC4)cn3)nc2n(C2CCCC2)c1=O [Palbociclib] (partner 0.5 µM)
5. CN1CCN(CCOc2cc(OC3CCOCC3)c3c(Nc4c(Cl)ccc5c4OCO5)ncnc3c2)CC1 [Saracatinib] + O=C(c1cc(Cc2n[nH]c(=O)c3ccccc23)ccc1F)N1CCN(C(=O)C2CC2)CC1 [Olaparib] (partner 8 µM)

1: 0.642; 2: 1.03; 3: 0.545; 4: 0.701; 5: 1.01

// for each compound below, give its relative viability
1. Cc1csc(=NC2CCCCC2)n1/N=C/c1ccc(O)c(O)c1O [MIM1] + C[C@@H](Oc1cc(-c2cnn(C3CCNCC3)c2)cnc1N)c1c(Cl)ccc(F)c1Cl [Crizotinib] (partner 1 µM)
2. Cc1csc(=NC2CCCCC2)n1/N=C/c1ccc(O)c(O)c1O [MIM1] + O=C(c1cc(Cc2n[nH]c(=O)c3ccccc23)ccc1F)N1CCN(C(=O)C2CC2)CC1 [Olaparib] (partner 8 µM)
3. Cc1csc(=NC2CCCCC2)n1/N=C/c1ccc(O)c(O)c1O [MIM1] + CS(=O)(=O)CCNCc1ccc(-c2ccc3ncnc(Nc4ccc(OCc5cccc(F)c5)c(Cl)c4)c3c2)o1 [Lapatinib] (partner 2 µM)

1: 0.805; 2: 0.819; 3: 0.871

###

Test system: NCI-H1650
test-method-notes: relative viability (nuclei count vs DMSO), 5 days (fraction); higher = more cells survive
condition-description: first compound 0.02 µM
result-type: relative viability
One number for each entry.

Answered cases to consult:
CN1CCN(CCOc2cc(OC3CCOCC3)c3c(Nc4c(Cl)ccc5c4OCO5)ncnc3c2)CC1 [Saracatinib] + Nc1nc2[nH]cc(CCc3ccc(C(=O)N[C@@H](CCC(=O)O)C(=O)O)cc3)c2c(=O)[nH]1 [Pemetrexed] (partner 0.2 µM) ... 0.343
CCNC(=O)c1noc(-c2cc(C(C)C)c(O)cc2O)c1-c1ccc(CN2CCOCC2)cc1 [Luminespib] + CC(=O)Nc1cccc(-n2c(=O)n(C3CC3)c(=O)c3c(Nc4ccc(I)cc4F)n(C)c(=O)c(C)c32)c1 [Trametinib] (partner 0.02 µM) ... 0.178
CCNC(=O)c1noc(-c2cc(C(C)C)c(O)cc2O)c1-c1ccc(CN2CCOCC2)cc1 [Luminespib] + COc1cc2c(Oc3ccc(NC(=O)C4(C(=O)Nc5ccc(F)cc5)CC4)cc3F)ccnc2cc1OCCCN1CCOCC1 [Foretinib] (partner 0.25 µM) ... 1.23

Any idea what its relative viability is? The compound is CN1CCN(CCOc2cc(OC3CCOCC3)c3c(Nc4c(Cl)ccc5c4OCO5)ncnc3c2)CC1 [Saracatinib] + CC(=O)c1c(C)c2cnc(Nc3ccc(N4CCNCC4)cn3)nc2n(C2CCCC2)c1=O [Palbociclib] (partner 0.5 µM)
0.334
